In this section we review reported AUC at 6 h values for a set of compounds.
# test.description: AUC in rat at 10 mg/kg, po after 6 hrs
# Type: ADME, organism-based
# Parameters: time < 6 hr, dose 10 mg/kg, route oral
# experimental.conditions: plasma
Number in ng·h/mL, nothing else.

Short answer for `O=S(=O)(NC[C@@H]1CCC[C@@]2(S(=O)(=O)c3ccc(C(F)(F)F)cc3)c3c(F)ccc(F)c3OC[C@@H]12)C(F)(F)F` : AUC at 6 h was 702

Please fill in: AUC at 6 h reported for `CS(=O)(=O)NC[C@@H]1CCC[C@@]2(S(=O)(=O)c3ccc(C(F)(F)F)cc3)c3c(F)ccc(F)c3OC[C@@H]12` = 2010
